Data credit: patent EP3666770A1

- Test system: MV4-11
- Protocol Notes: Cell-based antiproliferative test (AlamarBlue), MV4-11
- Condition: 120 h incubation; average values of several tests; read-out: MV-4-11 IC50, mkM
Endpoint Name: pIC50
In plain terms, pIC50 is the concentration in mol/L turned into minus its base-10 logarithm.

Cn1cc(-c2ccc(-c3cncc4ncc(C(=O)NC5CC5)cc34)cc2)cn1 : 7.66

Value (pIC50, MV4-11) for record Cn1cc(-c2ccc(-c3cncc4ncc(C(=O)NCC5CC5)cc34)cc2)cn1 = 7.26

###

- Protocol Notes: Permeability through Caco-2 cell monolayer
- Assay type: in vitro ADME
- Condition: human, Caco-2; efflux = Papp B-A / Papp A-B
Lab note - cut at 0.9 for efflux ratio at 2 h, 10 µM: satisfied if strictly below, not satisfied if not.

COc1cc(-c2cnc3[nH]cc(C(=O)c4ccccn4)c3c2)ccc1N1CCOCC1 : satisfied
CN(C)c1ccc(-c2cnc3[nH]cc(C(=O)c4cccnc4)c3c2)cc1O : satisfied

Please let me know if COCCNC(=O)c1cnc2c(N)ncc(-c3ccc(-c4cnn(C)c4)cc3)c2c1 shows efflux ratio at 2 h, 10 µM below 0.9.
not satisfied

Please let me know if COCCN(C)C(=O)c1cnc2c(N)ncc(-c3ccc(-c4cnn(C)c4)cc3)c2c1 shows efflux ratio at 2 h, 10 µM below 0.9.
satisfied

Please let me know if O=C(c1cccnc1)c1c[nH]c2ncc(-c3ccc(N4CCOCC4)c(O)c3)cc12 shows efflux ratio at 2 h, 10 µM below 0.9.
satisfied
